EXPERIMENTAL_TARGET: Voltage-gated inwardly rectifying potassium channel KCNH2 (Homo sapiens)
ASSAY_METHOD_TEXT: KCNH2 potassium channel function modulators, cell-based (AID 376);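 further: 0% = buffer alone and 100% = reference blocker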
CONDITION_DESCRIPTION: hERG-expressing cells, channel activity single-concentration screen; concentration not given here
Out of some 2,000 compounds screened, about 250 (12%) were called active. No stated cut-off is given here; in the data, active means hERG blockade below about -20% or above about 20%; inactive means in between. The sample as a whole holds a higher share of actives than the screen did.
Respond with a class label; see active, inactive

### Prompt Which outcome did this test record for the compound `Nc1ccc(S(=O)(=[OH+])[NH2+]c2ncccn2)cc1.[Ag+]` ?
### Response active

### Prompt And for CC1CC(C)(C)CC(OCCN2CCCCC2)(c2ccccc2)C1 (stereo unspecified) ?
### Response active

### Prompt What do we get for `O=C(O)c1cccc(S(=O)(=O)NCCO)c1` ?
### Response inactive

### Prompt Queued: `CN(Cc1cc(Br)cc(Br)c1O)Cc1c(O)ccc2ccccc12`
### Response inactive

### Prompt Input `OC(CCN1CCCCC1)(c1ccccc1)c1ccccc1`
### Response inactive

### Prompt Continue with O=C(O)C1CC=CCC1C(=O)Nc1cccc(O)c1 (stereo unspecified)
### Response inactive

###

EXPERIMENTAL_TARGET: Voltage-gated inwardly rectifying potassium channel KCNH2 (Homo sapiens) (UniProt Q12809)
Sequence (Q12809 whole entry, looked up): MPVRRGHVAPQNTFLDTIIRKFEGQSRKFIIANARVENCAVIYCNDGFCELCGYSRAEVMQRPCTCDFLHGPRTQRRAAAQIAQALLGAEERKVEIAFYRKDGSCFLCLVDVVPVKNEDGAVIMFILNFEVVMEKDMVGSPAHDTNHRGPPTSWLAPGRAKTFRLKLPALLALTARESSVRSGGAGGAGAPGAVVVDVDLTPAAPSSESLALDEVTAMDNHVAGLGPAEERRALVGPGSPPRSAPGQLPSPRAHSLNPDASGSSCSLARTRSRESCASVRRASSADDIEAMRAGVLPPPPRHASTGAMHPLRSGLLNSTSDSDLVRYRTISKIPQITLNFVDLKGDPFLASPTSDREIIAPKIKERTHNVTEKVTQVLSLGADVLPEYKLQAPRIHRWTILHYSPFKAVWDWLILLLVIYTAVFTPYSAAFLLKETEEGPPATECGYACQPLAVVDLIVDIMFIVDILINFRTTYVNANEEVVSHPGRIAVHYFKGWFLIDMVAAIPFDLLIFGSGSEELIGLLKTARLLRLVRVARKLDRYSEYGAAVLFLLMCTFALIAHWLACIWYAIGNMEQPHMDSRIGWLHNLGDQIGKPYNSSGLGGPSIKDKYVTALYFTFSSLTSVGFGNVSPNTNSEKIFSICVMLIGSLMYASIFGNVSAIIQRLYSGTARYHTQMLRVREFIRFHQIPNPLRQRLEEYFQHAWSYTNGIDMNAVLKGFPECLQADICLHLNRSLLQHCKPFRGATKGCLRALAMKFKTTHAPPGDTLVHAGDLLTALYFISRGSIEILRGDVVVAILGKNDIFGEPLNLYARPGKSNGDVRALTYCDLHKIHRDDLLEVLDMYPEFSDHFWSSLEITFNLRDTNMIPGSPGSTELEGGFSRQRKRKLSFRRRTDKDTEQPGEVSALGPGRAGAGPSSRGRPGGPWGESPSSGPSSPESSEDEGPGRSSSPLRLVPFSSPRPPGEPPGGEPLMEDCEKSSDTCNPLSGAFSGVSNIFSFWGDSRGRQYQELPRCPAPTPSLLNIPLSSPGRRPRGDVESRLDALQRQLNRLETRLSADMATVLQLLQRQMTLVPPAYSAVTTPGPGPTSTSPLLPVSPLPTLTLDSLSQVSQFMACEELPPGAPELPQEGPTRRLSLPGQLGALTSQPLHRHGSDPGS
ASSAY_METHOD_TEXT: KCNH2 potassium channel function modulators, cell-based (AID 376);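 further: 0% = buffer alone and 100% = reference blocker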
CONDITION_DESCRIPTION: hERG-expressing cells, channel activity single-concentration screen; concentration not given here
In all, about 2,000 compounds went through this assay and about 250 (12%) were called active. The list comes from a sample in which actives are over-represented; it also holds close analogues and randomly drawn compounds.
Measured hERG blockade, listed per entry.

COMPOUND | EXPERIMENTAL_TARGET | EXPERIMENTAL_ENDPOINT | EXPERIMENTAL_VALUE
CN(C)C1C(=O)C(C(=O)NCN2CCCC2)=C(O)C2(O)C(=O)C3=C(O)c4c(O)cccc4C(C)(O)C3CC12 (stereo unspecified) | Voltage-gated inwardly rectifying potassium channel KCNH2 (Homo sapiens) (UniProt Q12809) | hERG blockade | 5.47% (inactive)
Cc1nnc(S(=O)(=O)c2ccc(N=Nc3c(N)nc(N)nc3N)cc2)s1 | Voltage-gated inwardly rectifying potassium channel KCNH2 (Homo sapiens) (UniProt Q12809) | hERG blockade | -0.733% (inactive)

### Prompt Form field: reported hERG blockade of `Cc1sc2ccccc2[n+]1CCC(=O)O`
### Response -12.2% (inactive)

### Prompt Entry `Cn1cnc([N+](=O)[O-])c1Sc1nc(N)nc2c1ncn2Cc1ccccc1` please
### Response 37% (active)

### Prompt Next record, please: `Nc1nc(SCc2ccccc2)c2ncn(Cc3ccccc3)c2n1`
### Response -3.09% (inactive)

### Prompt Queued: COC(NC(N)=O)C(=O)O (stereo unspecified)
### Response 6.05% (inactive)

### Prompt Moving on to the next compound: `c1cncc(CNCc2cccnc2)c1`
### Response 5.77% (inactive)

### Prompt Same again, this time with C[N+]1(CC[N+]2(C)CCCC2c2cccnc2)CCCC1c1cccnc1 (stereo unspecified)
### Response 23.3% (active)

### Prompt For `O=C(O)c1ccccc1C1c2ccccc2Oc2ccccc21` then?
### Response 12.2% (inactive)

### Prompt Item: `O=C(O)C12CC3(C(=O)O)CC(C(=O)O)(CC(C(=O)O)(C1)C3=O)C2=O`
### Response -1.77% (inactive)

### Prompt Try Cc1cccc2c1Oc1ccccc1C2NC(=O)c1ccc([N+](=O)[O-])cc1 (stereo unspecified) next.
### Response 32.2% (active)

###

EXPERIMENTAL_TARGET: Voltage-gated inwardly rectifying potassium channel KCNH2 (Homo sapiens) (UniProt Q12809)
ASSAY_METHOD_TEXT: KCNH2 potassium channel function modulators, cell-based (AID 376);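 further: 0% = buffer alone and 100% = reference blocker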
CONDITION_DESCRIPTION: hERG-expressing cells, channel activity single-concentration screen; concentration not given here
Screen size: about 2,000 compounds; about 250 (12%) were called active. For the sample, actives were picked, then their nearest neighbours and some compounds at random.
EXPERIMENTAL_ENDPOINT: hERG blockade

Examples with answers:
COMPOUND | hERG blockade
O=C1C=C(Nc2nc(C(=O)O)cc(=O)[nH]2)c2ccccc2C1=O | 2.16% (inactive)
c1ccc2c(c1)-c1nc3ccccc3cc1C2N1CCOCC1 (stereo unspecified) | -9.86% (inactive)
Clc1ccc2c(c1)N(CCCN1CCCC13CCCCC3)c1ccccc1S2 | 4.63% (inactive)
CC1NCCC(CC(=O)O)C1CC(=O)O (stereo unspecified) | -10.6% (inactive)
CC(C)Cn1cnc2c(Sc3c([N+](=O)[O-])ncn3C)nc(N)nc21 | 4.65% (inactive)

### Prompt Report hERG blockade for `N#CC(=CNc1ccccn1)C(=O)C1CC1` please.
### Response 0.609% (inactive)

### Prompt Let us now turn to COC(=O)CCC(C)C1CCC2C3CCC4CC(O)CCC4(C)C3CCC12C (stereo unspecified)
### Response 3.2% (inactive)

### Prompt // same read-out, input: COc1ccc2c(c1)CN(C(C)C1CCC3C4CCC5CC(O)CCC5(C)C4CCC31C)CO2 (stereo unspecified)
### Response 51.3% (active)

### Prompt Cool, now CC(CCC(=O)O)C1CCC2C3CCC4CC(O)CCC4(C)C3CCC12C (stereo unspecified)
### Response 5.62% (inactive)

### Prompt Quick one: `O=C1Oc2ccccc2C(=O)C1=CN1C(=O)NC(=Cc2ccccc2O)C1=O`
### Response 10.5% (inactive)

### Prompt Similarly, `CC(=O)Nc1nc(NC(C)=O)c2[nH]c(CO)nc2n1` ?
### Response 0.0402% (inactive)

###

EXPERIMENTAL_TARGET: Voltage-gated inwardly rectifying potassium channel KCNH2 (Homo sapiens)
ASSAY_METHOD_TEXT: KCNH2 potassium channel function modulators, cell-based (AID 376);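 further: 0% = buffer alone and 100% = reference blocker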
CONDITION_DESCRIPTION: hERG-expressing cells, channel activity single-concentration screen; concentration not given here
Among all 2,000 compounds or so, about 250 (12%) were called active. The sample holds actives, similar compounds and a random draw of the others, so the mix is not that of the screen.
EXPERIMENTAL_ENDPOINT: hERG blockade (%)
Field format: number, assumed %, no unit text.

Consider the following illustrative entries.
MOLECULE | hERG blockade, %
O=C(Nc1ccc(-c2cn3ccccc3n2)cc1)c1cc(Br)ccc1O | 6.36
Cc1cc2c(=O)[nH]c(N)nc2nc1C | -6.54
N=Nc1c(OC(=O)Nc2cccc(Cl)c2)[nH]c2ccccc12 | 1.43
Nc1[nH]c(=O)nc2c1ncn2C1OC(CO)C(O)C1O (stereo unspecified) | -9.03
CN1CCN(CCCNN)CC1 | -5.53

### Prompt State the recorded hERG blockade for this entry: CN(C)CC1CCC2=C(C1=O)C(c1ccc(Cl)c(Cl)c1)C1=C(CCC(CN(C)C)C1=O)O2 (stereo unspecified)
### Response 24.7

###

Reported hERG blockade values for a set of molecules
EXPERIMENTAL_TARGET: Voltage-gated inwardly rectifying potassium channel KCNH2 (Homo sapiens) (UniProt Q12809)
ASSAY_METHOD_TEXT: KCNH2 potassium channel function modulators, cell-based (AID 376);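 further: 0% = buffer alone and 100% = reference blocker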
CONDITION_DESCRIPTION: hERG-expressing cells, channel activity single-concentration screen; concentration not given here
The campaign covered roughly 2,000 compounds. About 250 (12%) were called active. The sample holds actives, similar compounds and a random draw of the others, so the mix is not that of the screen.
Dear colleague, please return just the value in %, with no unit written.

### Prompt So what hERG blockade did CC1CCCC=CC2CC(OC(=O)CN(C)C)CC2C(O)C=CC(=O)O1 (centres undefined) get with Voltage-gated inwardly rectifying potassium channel KCNH2 (Homo sapiens) (UniProt Q12809)?
### Response -21.9

### Prompt Could you do the same for `Cc1nc2cccc([N+](=O)[O-])c2n1CCCN(C)C` , please?
### Response 3.79

### Prompt What do you get for `CCOc1ccc2nc3cc(N=Nc4ccc(N)nc4N)ccc3c(N)c2c1` ?
### Response 19.7

### Prompt # iterate: O=[N+]([O-])c1ccc(CS(=O)Cc2ccccc2)cc1 (centres undefined)
### Response 8.1

### Prompt Request: Cc1ccc(CN2CCN(Cc3ccc(C)o3)C(C)C2)o1 (centres undefined)
### Response 0.417

### Prompt Input `CCN(CC)CC[n+]1ccc2c(C)c3[nH]c4ccc(O)cc4c3c(C)c2c1`
### Response 45.4

### Prompt How about this molecule: CC(=O)C1CCC2C1(C)CC=C1C23C=CC2(CC(O)CCC12C)C(C(=O)O)C3C(=O)O (centres undefined)
### Response 3.22

### Prompt Repeat with c1ccc(COC2NCCN2Cc2ccccc2)cc1 (centres undefined)
### Response 7.69

### Prompt Param item: `CCN(CC)CCN1C(=O)c2cccc3cc(N)cc(c23)C1=O`
### Response -2.82

### Prompt Do the same for `O=C(O)CCc1c2ccc(=O)c(O)c-2oc2c(O)c(O)ccc12` please
### Response 6.94

### Prompt Also, `CC(C)N1CCN(c2ccncc2S(=O)(=O)N2CCCCC2)CC1` please.
### Response 4.4

### Prompt Repeat with `Nc1ccc2[nH]cc(CCC(=O)O)c2c1`
### Response 1.56

### Prompt # iterate: Oc1cc(O)c2c(c1)OC(c1ccc(O)c(O)c1)C(OC1(c3cc(O)c(O)c(O)c3)Oc3cc(O)cc(O)c3C(O)C1O)C2 (centres undefined)
### Response -3.37

### Prompt Would you mind doing `O=[N+]([O-])c1ccc2c(c1)Cc1cc(N=Cc3ccc4c(c3)OCO4)ccc1-2` as well?
### Response -2.54

### Prompt Then what about the molecule Nc1nc2c(ncn2C2CCC(CO)O2)c(=O)n1C(=O)c1ccccc1 (centres undefined) ?
### Response -28.6

### Prompt And then NC(N)=NC1C(O)C(O)C(O)C(N=C(N)N)C1O (centres undefined) , what is it?
### Response -0.537

### Prompt Also `O=C(Nc1c[nH]c(=O)[nH]c1=O)Oc1ccccc1` , if possible.
### Response -11

### Prompt Another molecule to look at: `NC(=O)SCC(=O)Nc1ccc2ncccc2c1`
### Response 8.17

### Prompt Then `CN(C)CCCN1c2ccc3ccccc3c2Sc2cccc(Cl)c21` ?
### Response 30.4

### Prompt Same for `Cc1cc(C(=O)CSC(=S)SC(C)(C)C)ccc1Cl`
### Response 8.12
